- System Name: SPPL2b (Homo sapiens, UniProt Q8TCT7)
- Construct: expressed in transfected cells; host or cells: HEK 293T
- Sequence (Q8TCT7 26-592): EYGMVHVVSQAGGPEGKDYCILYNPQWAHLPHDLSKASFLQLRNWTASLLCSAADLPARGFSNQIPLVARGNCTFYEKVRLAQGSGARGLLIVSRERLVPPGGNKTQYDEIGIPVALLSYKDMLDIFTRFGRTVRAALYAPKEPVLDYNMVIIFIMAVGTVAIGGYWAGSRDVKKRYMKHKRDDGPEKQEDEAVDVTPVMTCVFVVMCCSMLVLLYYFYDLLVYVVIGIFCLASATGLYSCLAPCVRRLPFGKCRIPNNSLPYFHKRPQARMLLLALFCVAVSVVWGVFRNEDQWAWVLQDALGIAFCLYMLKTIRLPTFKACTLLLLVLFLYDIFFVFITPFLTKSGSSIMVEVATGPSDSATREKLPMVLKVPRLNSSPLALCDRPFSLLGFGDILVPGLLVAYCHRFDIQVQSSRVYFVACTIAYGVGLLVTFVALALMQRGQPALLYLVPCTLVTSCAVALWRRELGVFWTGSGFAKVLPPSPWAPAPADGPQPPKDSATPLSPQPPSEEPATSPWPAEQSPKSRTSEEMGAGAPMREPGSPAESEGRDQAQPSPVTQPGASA
- Test Summary: FBA/SPPL2b co-transfected HEK 293T cell cleavage assay (Aβ ELISA, Western blot, IP/MS); further: test concentration or dose not given here
- Format: cell-based
- Particulars: Fig 3C upper panel
Numbered stars: 1 amine (or outer) side, 2 acyl side, 3 side chain; on linkers, the order of the positions; unused ones are H or OH. Square brackets hold non-standard residues; d marks the D form. Peptide text beside a SMILES is read from it. * marks the point of attachment. X1 = CC(N[*:1])C(=O)C(F)(F)C(=O)[*:2]; Boc = CC(C)(C)OC(=O)*
Measured Property: inhibition of FBA cleavage (10 kD ICD) by Western blot

| Compound | Meas Value |
| --- | --- |
| CC[C@H](C)[C@H](NC(=O)[C@@H](NC(=O)OC(C)(C)C)C(C)C)C(=O)NC(C)C(=O)C(F)(F)C(=O)N[C@H](C(=O)N[C@H](C(=O)OC)[C@@H](C)CC)C(C)C (stereo partly drawn) [GSI II] (Boc-VI[X1]VI-OMe) | greatly inhibit |
| C[C@H](NC(=O)[C@@H](O)c1cc(F)cc(F)c1)C(=O)N[C@@H]1C(=O)N(C)c2ccccc2-c2ccccc21 [LY-411,575] | greatly inhibit |
| C[C@H](NC(=O)Cc1cc(F)cc(F)c1)C(=O)NC(C(=O)OC(C)(C)C)c1ccccc1 (stereo partly drawn) [DAPT] | slightly reduce |
| CC(C)C[C@H](NC(=O)OCc1ccccc1)C(=O)N[C@@H](CC(C)C)C(=O)NCC(=O)CNC(=O)[C@H](CC(C)C)NC(=O)[C@H](CC(C)C)NC(=O)OCc1ccccc1 [(Z-LL)2 ketone] | greatly inhibit |

Next up:
Prompt line: Name the recorded inhibition of FBA cleavage (10 kD ICD) by Western blot of the item C[C@H](NC(=O)Cc1cc(F)cc(F)c1)C(=O)N[C@@H]1C(=O)N(C)c2ccccc2-c2ccccc21 [DBZ] in your answer.
Response line: slightly reduce
